The measured values listed here are drawn from ChEMBL document CHEMBL3044919.

Target: Histamine H1 receptor (Homo sapiens)
Sequence (P35367 whole entry): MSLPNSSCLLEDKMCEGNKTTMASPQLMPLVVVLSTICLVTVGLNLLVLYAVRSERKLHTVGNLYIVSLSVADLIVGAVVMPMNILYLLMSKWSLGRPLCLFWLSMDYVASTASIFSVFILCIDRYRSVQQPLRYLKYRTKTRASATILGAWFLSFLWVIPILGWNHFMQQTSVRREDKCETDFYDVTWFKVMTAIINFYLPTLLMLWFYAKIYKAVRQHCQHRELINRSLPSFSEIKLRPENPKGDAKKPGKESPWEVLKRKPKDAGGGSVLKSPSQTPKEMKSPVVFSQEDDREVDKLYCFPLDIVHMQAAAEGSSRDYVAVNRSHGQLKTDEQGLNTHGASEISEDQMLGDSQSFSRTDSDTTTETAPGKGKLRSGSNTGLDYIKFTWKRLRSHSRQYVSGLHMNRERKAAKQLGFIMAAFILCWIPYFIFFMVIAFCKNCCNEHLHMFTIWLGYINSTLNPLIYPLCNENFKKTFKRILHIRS
Test: Binding affinity to histamine H1 (unknown origin)
pKi: −log10 of the molar value.
Readout kind: pKi

1) CCCc1ccc2c(c1)sc(=O)n2CCN1CCCCCC1 ... 6.51

----------
Assay: Displacement of [3H]DTG from sigma-1 receptor in Cavia porcellus (guinea pig) brain membranes
Design: species or system Membrane
As shown below, each of these compounds has a reported Ki value.
Readout kind: Ki

1. CCCc1ccc2c(c1)sc(=O)n2CCN1CCCCC1 ... 18 nM
2. CCCc1ccc2c(c1)sc(=O)n2CCCN1CCCCC1 ... > 1000 nM
3. CCC(=O)c1ccc2c(c1)sc(=O)n2CCCN1CCCCC1 ... 202 nM
4. O=C(c1ccc2c(c1)sc(=O)n2CCN1CCCCC1)C1CC1 ... > 1000 nM
